Target: Receptor-type tyrosine-protein kinase FLT3 (Homo sapiens, UniProt P36888, ITD)
Sequence (P36888 whole entry, looked up, change not shown): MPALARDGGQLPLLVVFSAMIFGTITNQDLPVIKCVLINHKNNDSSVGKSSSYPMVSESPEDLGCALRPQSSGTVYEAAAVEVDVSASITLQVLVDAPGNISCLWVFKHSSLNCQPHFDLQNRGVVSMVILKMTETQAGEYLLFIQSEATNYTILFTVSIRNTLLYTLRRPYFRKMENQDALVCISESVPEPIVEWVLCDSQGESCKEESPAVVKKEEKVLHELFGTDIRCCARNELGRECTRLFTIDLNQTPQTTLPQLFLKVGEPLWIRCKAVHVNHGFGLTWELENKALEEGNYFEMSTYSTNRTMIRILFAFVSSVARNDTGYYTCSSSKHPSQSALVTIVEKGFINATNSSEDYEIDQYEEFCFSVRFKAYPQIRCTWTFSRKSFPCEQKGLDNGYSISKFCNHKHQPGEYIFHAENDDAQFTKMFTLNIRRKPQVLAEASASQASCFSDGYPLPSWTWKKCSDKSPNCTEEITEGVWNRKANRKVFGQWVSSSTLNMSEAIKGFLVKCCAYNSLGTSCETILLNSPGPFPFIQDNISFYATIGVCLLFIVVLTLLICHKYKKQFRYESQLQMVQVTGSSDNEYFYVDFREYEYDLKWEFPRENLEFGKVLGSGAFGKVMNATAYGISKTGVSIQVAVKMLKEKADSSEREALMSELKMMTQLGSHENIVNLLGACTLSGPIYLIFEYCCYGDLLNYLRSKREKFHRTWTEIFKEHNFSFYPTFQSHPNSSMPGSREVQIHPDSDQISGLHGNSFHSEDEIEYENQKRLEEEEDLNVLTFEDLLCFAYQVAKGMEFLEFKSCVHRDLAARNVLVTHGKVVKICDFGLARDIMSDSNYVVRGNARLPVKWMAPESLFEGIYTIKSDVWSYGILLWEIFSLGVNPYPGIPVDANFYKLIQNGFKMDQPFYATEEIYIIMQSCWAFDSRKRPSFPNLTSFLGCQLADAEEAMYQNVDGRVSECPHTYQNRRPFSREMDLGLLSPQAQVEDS
Assay: Inhibition of human partial length FLT3 ITD mutant expressed in bacterial expression system by Kinomescan method
Parameter: IC50

Req: Recorded IC50 for "CC(C)(C)c1cc(NC(=O)Nc2ccc(Oc3ncnc4[nH]ncc34)c(F)c2)no1" with Receptor-type tyrosine-protein kinase FLT3 (Homo sapiens, UniProt P36888, ITD), please?
Resp: 1.3 nM

* * *

Molecular target: Receptor-type tyrosine-protein kinase FLT3 (Homo sapiens, UniProt P36888, F691L/ITD)
Sequence (P36888 whole entry, looked up, stated change not applied): as the sequence (P36888 whole entry, looked up, change not shown) above
Please respond with condition met when measured IC50 is strictly beneath 100 nM, and with condition not met in all other cases.

Check out these entries, answers already filled in.
| Structure Notation | Label Class |
| --- | --- |
| CC(C)(C)c1cc(NC(=O)Nc2ccc(Oc3ccnc4nc[nH]c34)c(F)c2)no1 | condition met |
| CCCOc1cc2nccc(Oc3ccc(NC(=O)Nc4cc(C(C)(C)C)on4)cc3F)c2cc1OC | condition met |
| COc1cc2c(Oc3ccc(NC(=O)Nc4cc(C(C)(C)C)on4)cc3F)ccnc2cc1OCC(C)C | condition not met |
| COc1cc2c(Oc3ccc(NC(=O)Nc4cc(C(C)(C)C)on4)cc3F)ncnc2cn1 | condition not met |

Req: Answer whether the compound "COCCOc1cc2nccc(Oc3ccc(NC(=O)Nc4cc(C(C)(C)C)on4)cc3F)c2cc1OC" has IC50 strictly less than 100 nM
Resp: condition met

* * *

Molecular target: Receptor-type tyrosine-protein kinase FLT3 (Homo sapiens, UniProt P36888, F691L/ITD)
Assay type: cell-based, BaF3
Description: Inhibition of FLT3 ITD/F691L double mutant (unknown origin) expressed in mouse BaF3 cells
pIC50: −log10 of the molar value.
Could you label it T if measured pIC50 is 7 or higher, and F otherwise?

| Compound | Label Class |
| --- | --- |
| CCOc1cc2nccc(Oc3ccc(NC(=O)Nc4cc(C(C)(C)C)on4)cc3F)c2cc1OCC | T |
| COc1cc2nccc(Oc3ccc(NC(=O)Nc4cc(C(C)(C)C)on4)cc3F)c2cc1OCCCN1CCOCC1 | T |
| CC(C)(C)c1cc(NC(=O)Nc2ccc(Oc3ccnc4cc(OCC5CCCC5)c(OCC5CCCC5)cc34)c(F)c2)no1 | T |
| COCCOc1cc2nccc(Oc3ccc(NC(=O)Nc4cc(C(C)(C)C)on4)cc3F)c2cc1OCCOC | T |
| COCCOc1cc2c(Oc3ccc(NC(=O)Nc4cc(C(C)(C)C)on4)cc3F)ccnc2cc1OC | T |
| COc1cc2nccc(Oc3ccc(NC(=O)Nc4cc(C(C)(C)C)on4)cc3F)c2cc1OC | T |

Req: API: above_or_equal(metric=pIC50, cutoff=7) for item COc1cc2c(Oc3ccc(NC(=O)Nc4cc(C(C)(C)C)on4)cc3F)ccnc2cc1OCC1CO1 (stereo not drawn)
Resp: F

Req: API: above_or_equal(metric=pIC50, cutoff=7) for item "CC(C)(C)c1cc(NC(=O)Nc2ccc(Oc3ccnc4[nH]ccc34)c(F)c2)no1"
Resp: F

Req: API: above_or_equal(metric=pIC50, cutoff=7) for item "COc1cc2c(Oc3ccc(NC(=O)Nc4cc(C(C)(C)C)on4)cc3F)ccnc2cc1OCCCN1CCOCC1"
Resp: T

* * *

Target: Receptor-type tyrosine-protein kinase FLT3 (Homo sapiens, UniProt P36888, ITD)
Assay type: cell-based, BaF3
Description: Inhibition of FLT3 ITD mutant (unknown origin) expressed in mouse BaF3 cells
Could you please report measured pIC50 for the items listed next?
Give bare numbers, as −log10 of the molar value.

| Structure Notation | Target System | pIC50 |
| --- | --- | --- |
| COc1cc2nccc(Oc3ccc(NC(=O)Nc4cc(C(C)(C)C)on4)cc3F)c2cc1OC(C)C | Receptor-type tyrosine-protein kinase FLT3 (Homo sapiens, UniProt P36888, ITD) | 8.16 |

Can you give me pIC50 for all of these, one by one?
1. COCCOc1cc2nccc(Oc3ccc(NC(=O)Nc4cc(C(C)(C)C)on4)cc3F)c2cc1OC
2. COc1cc2c(Oc3ccc(NC(=O)Nc4cc(C(C)(C)C)on4)cc3F)ccnc2cc1OCC1CCCC1

Resp:
8.33
7.18

Can you give me pIC50 for all of these, one by one?
1. CCOc1cc2c(Oc3ccc(NC(=O)Nc4cc(C(C)(C)C)on4)cc3F)ccnc2cc1OC
2. COc1cc2nccc(Oc3ccc(NC(=O)Nc4cc(C(C)(C)C)on4)cc3F)c2cc1OC

Resp:
[8.14, 10.14]

Can you give me pIC50 for all of these, one by one?
1. CCCOc1cc2nccc(Oc3ccc(NC(=O)Nc4cc(C(C)(C)C)on4)cc3F)c2cc1OC
2. COc1cc2c(Oc3ccc(NC(=O)Nc4cc(C(C)(C)C)on4)cc3F)ncnc2cn1

Resp:
[7.72, 8.92]

Can you give me pIC50 for all of these, one by one?
1. COCCOc1cc2c(Oc3ccc(NC(=O)Nc4cc(C(C)(C)C)on4)cc3F)ccnc2cc1OC
2. COc1cc2c(Oc3ccc(NC(=O)Nc4cc(C(C)(C)C)on4)cc3F)ccnc2cc1OCC(C)C

Resp:
8.31
7.44
